procedure details: Antioxidant activity assessed as superoxide oxide free radical scavenging activity at 20 uM
Assay type: physicochemical
measure: Activity (%)

molecule | Activity, %
COc1cc(/C=C/C(=O)CC(=O)/C=C/c2ccc(O)c(OC)c2)ccc1O [CURCUMIN] | 30.2

[1] COc1cc(/C=C/c2cc(/C=C/c3ccc(O)c(OC)c3)n(C(N)=O)n2)ccc1O
[2] COc1cc(/C=C/c2cc(/C=C/c3ccc(O)c(OC)c3)n(C(=O)c3ccncc3)n2)ccc1O
[3] COc1cc(/C=C/c2cc(/C=C/c3ccc(O)c(OC)c3)n(-c3ccc([N+](=O)[O-])cc3[N+](=O)[O-])n2)ccc1O
Prompt: Rank by Activity (largest to smallest). In plain terms: list the labels in the order you were asked to.
Completion: 2, 1, 3
(2: 76.6%, 1: 49%, 3: 33%)

[I] COc1cc(C=C(C(=O)/C=C/c2ccc(O)c(OC)c2)C(=O)/C=C/c2ccc(O)c(OC)c2)ccc1O
[II] COc1cc(/C=C/c2cc(/C=C/c3ccc(O)c(OC)c3)n(C(N)=S)n2)ccc1O
Prompt: Which value of Activity is numerically greater: that of I or that of II ? Your choice should be expressed through its label.
Completion: II
(II: 78.8%, I: 44.9%)

====

procedure details: Antioxidant activity assessed as superoxide oxide free radical scavenging activity at 50 uM
Format: physicochemical
measure: Activity (%)

substance smiles | measure | quantitative result
COc1cc(/C=C/C(=O)C(=Cc2ccccc2O)C(=O)/C=C/c2ccc(O)c(OC)c2)ccc1O | Activity | 84.4

[a] COc1cc(/C=C/C(=O)C(=Cc2ccccc2)C(=O)/C=C/c2ccc(O)c(OC)c2)ccc1O
[b] COc1cc(/C=C/C(=O)CC(=O)/C=C/c2ccc(O)c(OC)c2)ccc1O
Prompt: Kindly identify which of a and b has the larger recorded Activity value. Record your answer as the label of the chosen record.
Completion: a

====

procedure details: Antioxidant activity assessed as nitric oxide free radical scavenging activity at 50 uM
Type: physicochemical
measure: Activity (%)

Examples with their reported Activity follow.
substance smiles | Activity (%)
COc1cc(/C=C/C(=O)CC(=O)/C=C/c2ccc(O)c(OC)c2)ccc1O | 59.9
COc1cc(C=C(C(=O)/C=C/c2ccc(O)c(OC)c2)C(=O)/C=C/c2ccc(O)c(OC)c2)ccc1O | 80.4
COc1cc(/C=C/c2cc(/C=C/c3ccc(O)c(OC)c3)n(C(N)=O)n2)ccc1O | 88.8
COc1cc(/C=C/c2cc(/C=C/c3ccc(O)c(OC)c3)n(C(=O)c3ccncc3)n2)ccc1O | 82.2
COc1cc(/C=C/C(=O)C(=Cc2ccccc2O)C(=O)/C=C/c2ccc(O)c(OC)c2)ccc1O | 70.2

[P] COc1cc(/C=C/C(=O)C(=Cc2ccc(N(C)C)cc2)C(=O)/C=C/c2ccc(O)c(OC)c2)ccc1O
[Q] COc1cc(/C=C/c2cc(/C=C/c3ccc(O)c(OC)c3)n(C(N)=S)n2)ccc1O
Prompt: Problem: Given the entries P and Q , determine which has the lower reported Activity. Field: selected label. Fill in the label of the entry you choose.
Completion: P
(P: 57.7%, Q: 90.2%)

====

procedure details: Antioxidant activity assessed as superoxide oxide free radical scavenging activity at 2 uM
Format: physicochemical
measure: Activity (%)

molecule | Activity, %
COc1cc(/C=C/c2cc(/C=C/c3ccc(O)c(OC)c3)n(C(N)=O)n2)ccc1O | 20.2
COc1cc(/C=C/c2cc(/C=C/c3ccc(O)c(OC)c3)n(-c3ccc([N+](=O)[O-])cc3[N+](=O)[O-])n2)ccc1O | 14.9

[a] COc1cc(/C=C/C(=O)C(=Cc2ccc(N(C)C)cc2)C(=O)/C=C/c2ccc(O)c(OC)c2)ccc1O
[b] COc1cc(/C=C/C(=O)CC(=O)/C=C/c2ccc(O)c(OC)c2)ccc1O [CURCUMIN]
Prompt: Pick one: a or b . Which one has the lower reported Activity? Response format: the label of the selected entry.
Completion: b
